- experimental_target: Orexin/Hypocretin receptor type 1 (Homo sapiens, UniProt O43613, I408V)
- Sequence (O43613 whole entry I408V): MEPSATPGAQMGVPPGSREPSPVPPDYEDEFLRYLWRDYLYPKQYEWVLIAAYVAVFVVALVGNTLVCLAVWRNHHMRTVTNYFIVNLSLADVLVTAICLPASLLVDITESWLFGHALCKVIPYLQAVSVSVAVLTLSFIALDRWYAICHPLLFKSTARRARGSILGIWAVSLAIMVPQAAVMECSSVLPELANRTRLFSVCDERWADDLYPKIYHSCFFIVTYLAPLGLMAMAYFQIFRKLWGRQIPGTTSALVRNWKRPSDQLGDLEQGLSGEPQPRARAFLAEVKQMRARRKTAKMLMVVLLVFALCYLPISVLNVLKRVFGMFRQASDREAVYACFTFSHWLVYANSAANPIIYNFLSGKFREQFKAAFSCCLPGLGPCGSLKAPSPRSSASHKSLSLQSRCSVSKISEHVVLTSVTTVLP
- run_description: Antagonist activity at human OX1R I408V mutant expressed in CHO cells assessed as inhibition of Ala-6,12-orexinA-induced effect after 5 mins by FLIPR assay
Attribute: pIC50
Convention used: pIC50 is expressed as -log10 of the molar concentration.

structure_string | experimental_target | pIC50
COc1ccc(CNC(=O)c2cc(-c3cncc(C)c3)ncc2N2CCCC2)nc1OC | Orexin/Hypocretin receptor type 1 (Homo sapiens, UniProt O43613, I408V) | 5.00
COc1ccc(CNC(=O)c2cc(-c3cncc(C)c3)ncc2N2CCC2)nc1OC | Orexin/Hypocretin receptor type 1 (Homo sapiens, UniProt O43613, I408V) | 5.00
COc1ccc(CNC(=O)c2cc(-c3cncc(C)c3)cnc2-c2ccccc2)nc1OC | Orexin/Hypocretin receptor type 1 (Homo sapiens, UniProt O43613, I408V) | 5.70
COc1ccc(CNC(=O)c2cc(-c3cncc(C)c3)ncc2-c2cccc(F)c2)nc1OC | Orexin/Hypocretin receptor type 1 (Homo sapiens, UniProt O43613, I408V) | 5.71
COc1ccc(CNC(=O)c2cc(-c3cncc(C)c3)ncc2-c2cncc(F)c2)nc1OC | Orexin/Hypocretin receptor type 1 (Homo sapiens, UniProt O43613, I408V) | 5.00

API: the following record is the query input.
### Prompt Could you share which pIC50 value was measured for `COc1ccc(CNC(=O)c2cc(-c3cncc(C)c3)ncc2-c2cnccn2)nc1OC` ?
### Response 5.00
